Origin of values: the supplement of paper PMC9233669

I'd appreciate it if you could supply self-aminoacylation values for the items below.
Test system: biotinyl-Trp-oxazolone
experiment_summary: self-aminoacylation, catalytic enhancement (BWO) (fold over background); higher = more active; k-Seq, kA / k0A0; sequences stand for … in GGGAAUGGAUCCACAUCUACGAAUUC…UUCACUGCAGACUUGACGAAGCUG
This sample holds only a part of the variants without activity.
Numbers only.

Below, 2 sequences whose answers are already recorded.
# sequence, metric_name, numeric_value
data = [
    ("CCACAUUUCAAGCAAUCGGGC [Fam1B.1 aminoacylation ribozyme variant]", "self-aminoacylation", 2.91),
    ("AUUACACUGGUCAUCGGGUGA [Fam2.1 aminoacylation ribozyme variant]", "self-aminoacylation", 9.23),
]

List reported self-aminoacylation for each of these sequences:
1. AUUCACCCAGGUCAUUGGGUG [Fam2.2 aminoacylation ribozyme variant]
2. CCACACUCCAAGCAAUCGGAC [Fam1B.1 aminoacylation ribozyme variant]
3. AUUCAACUAGGUGAUCGGGUG [Fam2.2 aminoacylation ribozyme variant]
4. GAGUUUGCUAAUAGGCGCAAG [Fam3.1 aminoacylation ribozyme variant]
5. AAUACCCUGGACAUCGAGUGA [Fam2.1 aminoacylation ribozyme variant]
6. GAGUUUGCUAAUAGUCGGAAG [Fam3.1 aminoacylation ribozyme variant]
7. AUAACCCUGGUCAACGAGUGA [Fam2.1 aminoacylation ribozyme variant]
8. CUUACCCUGGUCAUCGAGUUA [Fam2.1 aminoacylation ribozyme variant]

A.
1. 3.71
2. 0.574
3. 4.01
4. 1.35
5. 5.44
6. 4.68
7. 6.89
8. 2.08

* * *

Test system: biotinyl-Met-oxazolone
experiment_summary: self-aminoacylation, catalytic enhancement (BMO) (fold over background); higher = more active; k-Seq, kA / k0A0; sequences stand for … in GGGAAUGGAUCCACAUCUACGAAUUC…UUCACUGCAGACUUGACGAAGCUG
Fewer inactive variants are shown than the library holds.
metric_name: self-aminoacylation
Numbers only.

Here's what some known entries look like.
# sequence, experimental_system, numeric_value
rows = [
    ("AUUCUCCUAGGUGAUCGGGUG [Fam2.2 aminoacylation ribozyme variant]", "biotinyl-Met-oxazolone", 3.62),
    ("CCACAGUUCAUGCAAUCGGUC [Fam1B.1 aminoacylation ribozyme variant]", "biotinyl-Met-oxazolone", 0.972),
    ("CUACUUCAGCCAAUCGGUCUG [Fam1A.1 aminoacylation ribozyme variant]", "biotinyl-Met-oxazolone", 0.713),
    ("AUUACCCUGGUCAUCGUCUGA [Fam2.1 aminoacylation ribozyme variant]", "biotinyl-Met-oxazolone", 0.842),
    ("AUUCAGCUAGGUCAUCGAGUG [Fam2.2 aminoacylation ribozyme variant]", "biotinyl-Met-oxazolone", 2.24),
]

Give self-aminoacylation for each listed item.
1. AAGUUUGAUAAUAGUCGCAAC [Fam3.1 aminoacylation ribozyme variant]
2. AUUACCGUGGCCAUCGAGUGA [Fam2.1 aminoacylation ribozyme variant]
3. AUUCACCUAGGUCAUAGCGUG [Fam2.2 aminoacylation ribozyme variant]
4. AAGUUGGCAAAUAGUCGCAAG [Fam3.1 aminoacylation ribozyme variant]
5. AUUCAUCUAGGUCAUGGGGUG [Fam2.2 aminoacylation ribozyme variant]
6. AAGGUUGCUAAUAGUCGCGAG [Fam3.1 aminoacylation ribozyme variant]

A.
[0.773, 4.71, 3.36, 1.04, 4.98, 1.64]
